- target.under.test: PLK1 (Homo sapiens, UniProt P53350)
- Construct: endogenous in cells
- Sequence (P53350 whole entry): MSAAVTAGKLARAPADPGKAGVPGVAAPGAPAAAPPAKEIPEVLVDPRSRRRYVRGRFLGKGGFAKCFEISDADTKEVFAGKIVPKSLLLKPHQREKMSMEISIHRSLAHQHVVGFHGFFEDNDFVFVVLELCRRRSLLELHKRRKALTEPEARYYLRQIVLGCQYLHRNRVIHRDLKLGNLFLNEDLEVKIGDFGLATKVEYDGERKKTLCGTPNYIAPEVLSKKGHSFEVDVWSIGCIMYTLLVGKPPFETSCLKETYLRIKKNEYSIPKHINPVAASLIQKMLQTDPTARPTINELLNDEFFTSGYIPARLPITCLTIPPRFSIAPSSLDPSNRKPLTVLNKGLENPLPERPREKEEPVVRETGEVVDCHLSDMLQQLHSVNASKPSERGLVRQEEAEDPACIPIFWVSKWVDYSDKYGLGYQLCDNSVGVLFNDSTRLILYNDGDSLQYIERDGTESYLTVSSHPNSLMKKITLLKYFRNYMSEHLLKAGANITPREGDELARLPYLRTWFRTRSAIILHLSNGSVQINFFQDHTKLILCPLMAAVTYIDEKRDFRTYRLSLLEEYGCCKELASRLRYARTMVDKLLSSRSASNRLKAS
- test.summary: Western blot, protein degradation (DC50)
- Type: cell-based
- assay.setup: 6 h, western blot; read-out: PLK1 DC50 (6 h)
- Protocol: Cells were treated with the compound for a period of time, after that the cells were collected by centrifugation. After washing with PBS, the cells were lysed by adding RIPA buffer; the cell lysate were added to the loading buffer and then appropriate volume were taken and slowly added to the corresponding wells of the gel plate, and run the SDS-PAGE gel (4%-12%). […] The intensity of protein bands was analyzed quantitatively using ImageJ software.
value.kind: DC50

>  <compound>
CC[C@@H]1c2c(C#N)ncn2-c2cnc(Nc3ccc(C(=O)NCCOCCOCCOCCOCC(=O)N[C@H](C(=O)N4C[C@H](O)C[C@H]4C(=O)NCc4ccc(-c5scnc5C)cc4)C(C)(C)C)cc3OC)nc2N1C1CCCC1

>  <value.kind>
DC50

>  <value>
> 1000 nM

$$$$
>  <compound>
CC[C@@H]1C(=O)N(C)c2cnc(Nc3ccc(C(=O)NCc4cn(CCNCCCC(=O)Nc5cccc6c5CN(C5CCC(=O)NC5=O)C6=O)nn4)cc3OC)nc2N1C1CCCC1 (stereo partly shown)

>  <value.kind>
DC50

>  <value>
100 to 1000 nM

$$$$
>  <compound>
CC[C@@H]1C(=O)N(C)c2cnc(Nc3ccc(C(=O)NCCNc4cccc5c4CN(C4CCC(=O)NC4=O)C5=O)cc3OC)nc2N1C1CCCC1 (stereo partly shown)

>  <value.kind>
DC50

>  <value>
> 1000 nM

$$$$
>  <compound>
CC[C@@H]1C(=O)N(C)c2cnc(Nc3ccc(C(=O)NCCOCCNCCCCCCC(=O)Nc4cccc5c4CN(C4CCC(=O)NC4=O)C5=O)cc3OC)nc2N1Cc1ccc(Cl)s1 (stereo partly shown)

>  <value.kind>
DC50

>  <value>
< 10 nM

$$$$
>  <compound>
CC[C@@H]1C(=O)N(C)c2cnc(Nc3ccc(C(=O)NCCCNCCCCC(=O)Nc4cccc5c4CN(C4CCC(=O)NC4=O)C5=O)cc3OC)nc2N1Cc1ccc(Cl)s1 (stereo partly shown)

>  <value.kind>
DC50

>  <value>
10 to 100 nM

$$$$
>  <compound>
CC[C@@H]1C(=O)N(C)c2cnc(Nc3ccc(C(=O)NCCOCCNCCCCCCC(=O)Nc4cccc5c4CN(C4CCC(=O)NC4=O)C5=O)cc3OC)nc2N1C1CCCC1 (stereo partly shown)

>  <value.kind>
DC50

>  <value>
100 to 1000 nM

$$$$
>  <compound>
CC[C@@H]1C(=O)N(C)c2cnc(Nc3ccc(C(=O)NCCOCCOCCOCCNCC(=O)Nc4cccc5c4CN(C4CCC(=O)NC4=O)C5=O)cc3OC)nc2N1C1CCCC1 (stereo partly shown)

>  <value.kind>
DC50

>  <value>
< 10 nM

$$$$
